# Lookup of reported pIC50 keyed by entry
system: 282377-053-R-J1-PDC complex spheroids, viability; assay: Anticancer human tumor 282377-053-R-J1-PDC patient-derived colon adenocarcinoma cell line growth inhibition [GQUAD]; conditions: curve of compound
pIC50: −log10 of the molar value.

Using the record for `CC[C@@]1(O)C(=O)OCc2c1cc1n(c2=O)Cc2cc3c(CN(C)C)c(O)ccc3nc2-1` , report its pIC50. < 6.50

====

# Lookup of reported viability, T/C keyed by entry
Tested on: 282377-053-R-J1-PDC complex spheroids, viability
Assay: Anticancer human tumor 282377-053-R-J1-PDC cell line growth inhibition [GQUAD];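 note: spheroids exposed to compounds for 7 days before readout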
Details: second compound 3.16 µM; first compound 0.00999 µM; stronger effect = lower value
Text: DNA G-quadruplex Stabilizer Agents in Combinations in Complex Spheroids A high-throughput screen of multi-cell type tumor spheroids was designed to identify active combinations of DNA G-quadruplex stabilizer agents and targeted small molecules. […] Compounds. […] If the clinical Cmax for an agent had not been determined, the highest concentration tested was 10 microM. […]
Unit % implied. Number only.

Take a look at these entries with their results.
{"compound": "CC[C@@]1(O)C(=O)OCc2c1cc1n(c2=O)Cc2cc3c(CN(C)C)c(O)ccc3nc2-1 + CN(C)c1ccc(Nc2c3ccc(NC(=O)CCN4CCCC4)cc3nc3cc(NC(=O)CCN4CCCC4)ccc23)cc1", "numeric_value": 97.8}
{"compound": "Cc1[nH]c2ccccc2c1CCNCc1ccc(/C=C/C(=O)NO)cc1 + Cc1[nH]c2ccc(F)cc2c1-c1nc2c3cccnc3c3ncccc3c2[nH]1", "numeric_value": 60.9}

Using the record for CCc1c2c(nc3ccc(O)cc13)-c1cc3c(c(=O)n1C2)COC(=O)[C@]3(O)CC + Cc1[nH]c2ccc(F)cc2c1-c1nc2c3cccnc3c3ncccc3c2[nH]1 , report its viability, T/C. 33.4

Using the record for CCc1c2c(nc3ccc(O)cc13)-c1cc3c(c(=O)n1C2)COC(=O)[C@]3(O)CC + CN(C)c1ccc(Nc2c3ccc(NC(=O)CCN4CCCC4)cc3nc3cc(NC(=O)CCN4CCCC4)ccc23)cc1 , report its viability, T/C. 91.6

Using the record for Cc1[nH]c2ccccc2c1CCNCc1ccc(/C=C/C(=O)NO)cc1 + CN(C)c1ccc(Nc2c3ccc(NC(=O)CCN4CCCC4)cc3nc3cc(NC(=O)CCN4CCCC4)ccc23)cc1 , report its viability, T/C. 101

====

system: 282377-053-R-J1-PDC complex spheroids, viability; assay: Anticancer human tumor 282377-053-R-J1-PDC cell line growth inhibition [GQUAD]; settings: second compound 1 µM; first compound 3.16 µM; active = viability on the fitted dose curve at most 10% of control; inactive = the rest;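 note: spheroids exposed to compounds for 7 days before readout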
Form entry, call: pick from class 1 = active, class 0 = inactive

Worked examples, 2 molecules total:
{"molecule": "CC(=O)O[C@H]1C(=O)[C@@]2(C)[C@H]([C@H](OC(=O)c3ccccc3)[C@]3(O)C[C@H](OC(=O)[C@H](O)[C@@H](NC(=O)c4ccccc4)c4ccccc4)C(C)=C1C3(C)C)[C@]1(OC(C)=O)CO[C@@H]1C[C@@H]2O + Cc1cnc(CNC(=O)c2c(=O)c3ccc(N4CCCN(C)CC4)nc3n3c2sc2ccccc23)cn1", "label_class": "class 0"}
{"molecule": "O=C(NO)c1cnc(N2CCN(S(=O)(=O)c3ccc4ccccc4c3)CC2)nc1 + CN(C)c1ccc(Nc2c3ccc(NC(=O)CCN4CCCC4)cc3nc3cc(NC(=O)CCN4CCCC4)ccc23)cc1", "label_class": "class 1"}

Which outcome was assigned to CC1COCCN1c1cc(-c2ccnn2C)c2ccnc(-c3ccn[nH]3)c2n1 (stereo not drawn) + CN(C)c1ccc(Nc2c3ccc(NC(=O)CCN4CCCC4)cc3nc3cc(NC(=O)CCN4CCCC4)ccc23)cc1 in this test? class 0

====

system: 282377-053-R-J1-PDC complex spheroids, viability; assay: Anticancer human tumor 282377-053-R-J1-PDC cell line growth inhibition [GQUAD]; conditions: second compound 1 µM; first compound 10 µM; stronger effect = lower value;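 note: spheroids exposed to compounds for 7 days before readout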;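 for viability, T/C: percent of vehicle DMSO control viability with 100% = untreated-like growth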
Threshold-based label: viability, T/C under 60% gives true, viability, T/C not under 60% gives false.

{"compound": "C=CC(=O)N1CCN(c2nc(=O)n(-c3c(C)ccnc3C(C)C)c3nc(-c4c(O)cccc4F)c(F)cc23)C(C)C1 (stereo not given) + Cc1[nH]c2ccc(F)cc2c1-c1nc2c3cccnc3c3ncccc3c2[nH]1", "label_class": "false"}
{"compound": "COc1ncnc(C2CC2)c1-c1ncc2cnn(Cc3ccc(-c4nc(C(F)(F)F)cn4C(C)C)cc3)c2n1 + Cc1cnc(CNC(=O)c2c(=O)c3ccc(N4CCCN(C)CC4)nc3n3c2sc2ccccc23)cn1", "label_class": "true"}
{"compound": "O=C(NO)c1cnc(N2CCN(S(=O)(=O)c3ccc4ccccc4c3)CC2)nc1 + Cc1[nH]c2ccc(F)cc2c1-c1nc2c3cccnc3c3ncccc3c2[nH]1", "label_class": "true"}
{"compound": "Cc1cccc(N(C)C(=O)C2C(O)CCN2c2nc(C)cc(C(F)(F)F)c2C#N)c1 (stereo not given) + Cc1[nH]c2ccc(F)cc2c1-c1nc2c3cccnc3c3ncccc3c2[nH]1", "label_class": "false"}

Continue with the compound presented below.
Decide: viability, T/C of CC1COCCN1c1cc(C2(S(C)(=N)=O)CC2)nc(-c2ccnc3[nH]ccc23)n1 (stereo not given) + Cc1cnc(CNC(=O)c2c(=O)c3ccc(N4CCCN(C)CC4)nc3n3c2sc2ccccc23)cn1 strictly below 60%? true

====

system: 282377-053-R-J1-PDC complex spheroids, viability; experiment: Anticancer human tumor 282377-053-R-J1-PDC cell line growth inhibition [GQUAD]; details: second compound 1 µM; first compound 10 µM; stronger effect = lower value;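 note: spheroids exposed to compounds for 7 days before readout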;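 for viability, T/C: percent of vehicle DMSO control viability with 100% = untreated-like growth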
Threshold-based label: viability, T/C under 50% gives yes (1), viability, T/C not under 50% gives no (0).

Decide: viability, T/C of CCCS(=O)(=O)Nc1ccc(F)c(C(=O)c2c[nH]c3ncc(-c4ccc(Cl)cc4)cc23)c1F + Cc1cnc(CNC(=O)c2c(=O)c3ccc(N4CCCN(C)CC4)nc3n3c2sc2ccccc23)cn1 strictly below 50%? yes (1)

Decide: viability, T/C of CC(=O)O[C@H]1C(=O)[C@@]2(C)[C@H]([C@H](OC(=O)c3ccccc3)[C@]3(O)C[C@H](OC(=O)[C@H](O)[C@@H](NC(=O)c4ccccc4)c4ccccc4)C(C)=C1C3(C)C)[C@]1(OC(C)=O)CO[C@@H]1C[C@@H]2O + Cc1cnc(CNC(=O)c2c(=O)c3ccc(N4CCCN(C)CC4)nc3n3c2sc2ccccc23)cn1 strictly below 50%? yes (1)

Decide: viability, T/C of CC1COCCN1c1cc(C2(S(C)(=N)=O)CC2)nc(-c2ccnc3[nH]ccc23)n1 (stereo not given) + CN(C)c1ccc(Nc2c3ccc(NC(=O)CCN4CCCC4)cc3nc3cc(NC(=O)CCN4CCCC4)ccc23)cc1 strictly below 50%? yes (1)

Decide: viability, T/C of COc1ncnc(C2CC2)c1-c1ncc2cnn(Cc3ccc(-c4nc(C(F)(F)F)cn4C(C)C)cc3)c2n1 + Cc1[nH]c2ccc(F)cc2c1-c1nc2c3cccnc3c3ncccc3c2[nH]1 strictly below 50%? yes (1)

Decide: viability, T/C of C=CC(=O)N1CCN(c2nc(=O)n(-c3c(C)ccnc3C(C)C)c3nc(-c4c(O)cccc4F)c(F)cc23)C(C)C1 (stereo not given) + CN(C)c1ccc(Nc2c3ccc(NC(=O)CCN4CCCC4)cc3nc3cc(NC(=O)CCN4CCCC4)ccc23)cc1 strictly below 50%? no (0)

====

test system: 282377-053-R-J1-PDC complex spheroids, viability; experiment: Anticancer human tumor 282377-053-R-J1-PDC cell line growth inhibition [GQUAD]; conditions: second compound 10 µM; first compound 0.00999 µM; stronger effect = lower value;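 note: spheroids exposed to compounds for 7 days before readout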;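 for viability, T/C: percent of vehicle DMSO control viability with 100% = untreated-like growth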
# Lookup of reported viability, T/C keyed by entry

{"compound": "CC[C@@]1(O)C(=O)OCc2c1cc1n(c2=O)Cc2cc3c(CN(C)C)c(O)ccc3nc2-1 + Cc1cnc(CNC(=O)c2c(=O)c3ccc(N4CCCN(C)CC4)nc3n3c2sc2ccccc23)cn1", "result": "49.8%"}
{"compound": "CC[C@@]1(O)C(=O)OCc2c1cc1n(c2=O)Cc2cc3c(CN(C)C)c(O)ccc3nc2-1 + CN(C)c1ccc(Nc2c3ccc(NC(=O)CCN4CCCC4)cc3nc3cc(NC(=O)CCN4CCCC4)ccc23)cc1", "result": "94.7%"}

Field: next compound
Using the record for Cn1ncnc1[C@H]1c2n[nH]c(=O)c3cc(F)cc(c23)N[C@@H]1c1ccc(F)cc1 + Cc1cnc(CNC(=O)c2c(=O)c3ccc(N4CCCN(C)CC4)nc3n3c2sc2ccccc23)cn1 , report its viability, T/C. 52.4%

====

tested on: 282377-053-R-J1-PDC complex spheroids, viability; assay: Anticancer human tumor 282377-053-R-J1-PDC cell line growth inhibition [GQUAD]; settings: second compound 0.0316 µM; first compound 0.316 µM; stronger effect = lower value;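 note: spheroids exposed to compounds for 7 days before readout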;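 for viability, T/C: percent of vehicle DMSO control viability with 100% = untreated-like growth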
Threshold-based label: viability, T/C under 80% gives class 1, viability, T/C not under 80% gives class 0.

Decide: viability, T/C of CC1COCCN1c1cc(-c2ccnn2C)c2ccnc(-c3ccn[nH]3)c2n1 (stereo unspecified) + Cc1cnc(CNC(=O)c2c(=O)c3ccc(N4CCCN(C)CC4)nc3n3c2sc2ccccc23)cn1 strictly below 80%? class 1

Decide: viability, T/C of CC1COCCN1c1cc(C2(S(C)(=N)=O)CC2)nc(-c2ccnc3[nH]ccc23)n1 (stereo unspecified) + Cc1cnc(CNC(=O)c2c(=O)c3ccc(N4CCCN(C)CC4)nc3n3c2sc2ccccc23)cn1 strictly below 80%? class 0
